Overview of recorded log10 Cleavage for various substances
target: FAP (Homo sapiens)
Construct: expressed in transfected cells; host or cells: 293 cells stably transfected with FAP; cell extract
Sequence (Q12884 1-760): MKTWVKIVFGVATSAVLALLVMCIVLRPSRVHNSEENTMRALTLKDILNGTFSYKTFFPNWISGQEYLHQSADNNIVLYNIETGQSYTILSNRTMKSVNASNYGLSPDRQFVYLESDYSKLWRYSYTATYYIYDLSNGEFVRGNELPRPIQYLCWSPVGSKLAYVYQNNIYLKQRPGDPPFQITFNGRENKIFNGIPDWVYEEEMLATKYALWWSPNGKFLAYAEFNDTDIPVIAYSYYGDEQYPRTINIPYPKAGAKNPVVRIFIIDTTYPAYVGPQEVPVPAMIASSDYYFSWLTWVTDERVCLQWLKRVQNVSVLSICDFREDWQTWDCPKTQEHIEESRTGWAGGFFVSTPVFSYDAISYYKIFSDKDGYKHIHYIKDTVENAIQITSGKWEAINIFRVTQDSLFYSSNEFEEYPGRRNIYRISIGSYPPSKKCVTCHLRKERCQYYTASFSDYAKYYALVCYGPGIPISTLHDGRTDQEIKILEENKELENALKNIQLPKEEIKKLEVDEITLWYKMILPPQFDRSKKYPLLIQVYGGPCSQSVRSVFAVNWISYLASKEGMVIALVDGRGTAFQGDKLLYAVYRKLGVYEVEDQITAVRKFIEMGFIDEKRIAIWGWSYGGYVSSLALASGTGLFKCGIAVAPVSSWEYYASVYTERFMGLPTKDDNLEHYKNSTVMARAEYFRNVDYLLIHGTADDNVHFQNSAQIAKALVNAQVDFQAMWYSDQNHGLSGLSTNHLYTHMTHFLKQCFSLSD
measurement.notes: Assay for cleavage of MNA substrates by FAP
Format: biochemical
conditions.used: 1 ng FAP enzyme (extract of FAP-transfected 293 cells), 20 μl 2.5 mM substrate, 1 hour at room temperature, fluorescence Ex 355/Em 405 nm, FAP-negative 293 control subtracted
quantity.measured: log10 Cleavage (log10 of the value in µM)

[[record]]
substance = "[2-(3-Carboxymethyl-phenyl)-acetyl]-N-MeVal-Ala-Gly-Pro-MNA (VAGP; N-terminal 3-carboxymethylphenylacetyl, N-methyl; C-terminal MNA; printed: Val-Ala-Gly-Pro-)"
numeric_readout = 0.98

[[record]]
substance = "[2-(4-Carboxymethyl-phenyl)-acetyl]-N-MeIle-Ala-Gly-Pro-MNA (IAGP; N-terminal 4-carboxymethylphenylacetyl, N-methyl; C-terminal MNA; printed: Ile-Ala-Gly-Pro-)"
numeric_readout = 1.21

[[record]]
substance = "[2-(2-Carboxymethyl-phenyl)-acetyl]-Pro-Ala-Gly-Pro-MNA (PAGP; N-terminal 2-carboxymethylphenylacetyl; C-terminal MNA; printed: Pro-Ala-Gly-Pro-)"
numeric_readout = -0.03

[[record]]
substance = "[2-(4-Carboxymethyl-phenyl)-acetyl]-N-MeLeu-Ala-Gly-Pro-MNA (LAGP; N-terminal 4-carboxymethylphenylacetyl, N-methyl; C-terminal MNA; printed: Leu-Ala-Gly-Pro-)"
numeric_readout = 1.15

[[record]]
substance = "[2-(4-Carboxymethyl-phenyl)-acetyl]-Aze-Ala-Gly-Pro-MNA"
numeric_readout = 0.98

[[record]]
substance = "[2-(4-Carboxymethyl-phenyl)-acetyl]-Pro-Ala-Gly-Pro-MNA (PAGP; N-terminal 4-carboxymethylphenylacetyl; C-terminal MNA; printed: Pro-Ala-Gly-Pro-)"
numeric_readout = 0.86

